- test method notes: Times to onset, minimal and maximal, observed in the indexed observations. [column 'DELAI' in source]
- conditions: human

| compound | Hepatotoxicity (time to onset) |
| --- | --- |
| CC(=O)c1ccc2c(c1)N(CC(C)N(C)C)c1ccccc1S2 (centres undefined) [ACEPROMETAZINE] | 3 months |
| CCC(c1ccccc1)c1c(O)c2ccccc2oc1=O (centres undefined) [PHENPROCOUMON] | 6 days - 7 years |
| CC(C)(C)NC(=O)[C@@H]1CN(Cc2cccnc2)CCN1C[C@@H](O)C[C@@H](Cc1ccccc1)C(=O)N[C@H]1c2ccccc2C[C@H]1O.O | 5 hours - 19 months |
| CCCSc1ccc2nc(NC(=O)OC)[nH]c2c1 [ALBENDAZOLE] | 1 week - 6 months |
| O=c1[nH]c2ccccc2n1C1CCN(CCCC(c2ccc(F)cc2)c2ccc(F)cc2)CC1 [PIMOZIDE] | 3 days |
| Nc1cc(N2CCCCC2)nc(N)[n+]1[O-] [MINOXIDIL] | 3 days - 1 year |
| CC/C(=C(/CC)c1ccc(O)cc1)c1ccc(O)cc1 [DIETHYLSTILBESTROL] | 4 days - 15 years |
| Cc1ncc(CO)c(CO)c1O [PYRIDOXINE] | 2 months |
| Nc1nc2ccc(OC(F)(F)F)cc2s1 [RILUZOLE] | 15 days - 9 months |

Taken from ChEMBL document CHEMBL3137667.
